# ASSAY TARGET: UniProtKB P13569
# PROTOCOL NOTES: Membrane Potential Dye, Enteroid Assay A
# Assay type: cell-based

# COMPOUND, Ent. A Max Activity (%)
rows = [
    ("Cc1cccc(C)c1-c1cc2nc(n1)NS(=O)(=O)c1cccc(c1)C(=O)N(C1CC3(CCN(C)CC3)C1)C[C@@H](C)O2", "+++ (+++ is >60%)"),
    ("CNC(=O)[C@H]1CC2(C1)C[C@H](N1C(=O)c3cccc(c3)S(=O)(=O)Nc3nc(cc(-c4c(C)cccc4C)n3)OC[C@H]1CC(C)C)C2 (stereo in doubt) [Compound 347]", "+++ (+++ is >60%)"),
]

----------
# ASSAY TARGET: CFTR (Homo sapiens, UniProt P13569)
# Sequence (P13569 with tags, fused parts or gaps DEL508-508): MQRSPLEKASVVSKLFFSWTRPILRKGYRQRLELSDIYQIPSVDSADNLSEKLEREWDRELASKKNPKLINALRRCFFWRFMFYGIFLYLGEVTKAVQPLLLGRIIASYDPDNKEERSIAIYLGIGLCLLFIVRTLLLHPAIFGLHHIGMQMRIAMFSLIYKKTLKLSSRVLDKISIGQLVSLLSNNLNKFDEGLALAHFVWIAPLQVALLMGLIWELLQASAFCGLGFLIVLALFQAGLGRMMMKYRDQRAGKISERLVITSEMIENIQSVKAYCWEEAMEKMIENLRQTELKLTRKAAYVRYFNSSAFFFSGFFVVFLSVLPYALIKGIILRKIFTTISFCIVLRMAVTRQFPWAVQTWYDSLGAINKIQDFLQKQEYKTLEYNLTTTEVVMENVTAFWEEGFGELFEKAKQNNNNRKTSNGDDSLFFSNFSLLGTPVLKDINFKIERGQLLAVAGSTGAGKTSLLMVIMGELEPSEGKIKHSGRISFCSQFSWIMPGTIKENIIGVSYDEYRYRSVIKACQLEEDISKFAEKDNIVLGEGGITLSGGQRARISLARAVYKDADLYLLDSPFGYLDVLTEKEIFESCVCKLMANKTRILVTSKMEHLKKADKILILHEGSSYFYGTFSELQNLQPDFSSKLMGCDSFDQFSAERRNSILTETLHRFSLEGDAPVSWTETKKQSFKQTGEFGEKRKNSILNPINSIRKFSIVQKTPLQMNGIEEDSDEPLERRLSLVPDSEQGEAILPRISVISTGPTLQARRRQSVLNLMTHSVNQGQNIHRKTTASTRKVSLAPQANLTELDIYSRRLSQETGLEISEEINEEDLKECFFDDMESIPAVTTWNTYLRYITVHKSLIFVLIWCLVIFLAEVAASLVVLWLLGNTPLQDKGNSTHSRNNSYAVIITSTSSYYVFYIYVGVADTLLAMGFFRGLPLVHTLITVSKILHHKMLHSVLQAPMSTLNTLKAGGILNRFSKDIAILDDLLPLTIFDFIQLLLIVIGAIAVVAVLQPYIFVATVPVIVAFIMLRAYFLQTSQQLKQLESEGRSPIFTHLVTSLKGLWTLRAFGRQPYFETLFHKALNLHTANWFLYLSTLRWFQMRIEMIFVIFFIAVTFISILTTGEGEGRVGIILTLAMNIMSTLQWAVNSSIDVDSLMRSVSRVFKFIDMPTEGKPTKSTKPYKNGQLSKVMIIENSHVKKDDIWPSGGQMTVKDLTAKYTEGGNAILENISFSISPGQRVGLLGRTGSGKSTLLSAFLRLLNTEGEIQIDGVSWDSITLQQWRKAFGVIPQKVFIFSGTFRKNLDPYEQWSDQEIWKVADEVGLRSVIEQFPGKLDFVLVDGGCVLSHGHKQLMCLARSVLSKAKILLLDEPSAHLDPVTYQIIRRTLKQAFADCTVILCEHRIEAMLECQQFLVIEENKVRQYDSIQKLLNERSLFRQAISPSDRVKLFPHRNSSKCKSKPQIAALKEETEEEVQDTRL
# PROTOCOL NOTES: Membrane Potential Dye, Enteroid Assay B
# Assay type: cell-based
# SETUP CONDITIONS: Table 9, read-out: Ent. B EC50

# COMPOUND, EC50
measured = [
    ("Cc1cccc(C)c1-c1cc2cc(n1)NS(=O)(=O)c1cccc(n1)C(=O)N(C1CC3(CC3)C1)[C@H](CC1(C(F)(F)F)CC1)CO2", "< 1000 nM"),
    ("Cc1cccc(C)c1-c1cc2nc(n1)NS(=O)(=O)c1cccc(c1)C(=O)N(C1CC3(CCN(CCOCc4ccccc4)CC3)C1)[C@H](CC(C)C)CO2", "< 1000 nM"),
    ("Cc1cccc(C)c1-c1cc2nc(n1)NS(=O)(=O)c1cccc(c1)C(=O)N(C1CC(NC(=O)OC(C)C)C1)[C@H](CC1(C(F)(F)F)CC1)CO2 (single isomer, unassigned) [Compound 60]", "< 1000 nM"),
]

----------
# ASSAY TARGET: UniProtKB P13569
# PROTOCOL NOTES: Membrane Potential Dye, Enteroid Assay B
# Type: cell-based
# SETUP CONDITIONS: Table 9
MEASURE NAME: Ent. B Max Activity (%)

# COMPOUND, OBSERVED RESULT
rows = [
    ("COC(=O)N1CC2(CC(N3C(=O)c4cccc(c4)S(=O)(=O)Nc4nc(cc(-c5c(C)cccc5C)n4)OC[C@H]3CC3(C(F)(F)F)CC3)C2)C1 [Compound 453]", "+++ (+++ is >60%)"),
    ("Cc1cccc(C)c1-c1cc2nc(n1)NS(=O)(=O)c1cccc(c1)C(=O)N(C1CC3(CCN(C(=O)[C@H](C)O)CC3)C1)[C@H](CC(C)C)CO2 [Compound 456]", "+++ (+++ is >60%)"),
    ("Cc1cccc(C)c1-c1cc2nc(n1)NS(=O)(=O)c1cccc(c1)C(=O)N(C1CC(NC(=O)C(C)C)C1)[C@H](CC(C)(C)C)CO2 (single isomer, unassigned) [Compound 444]", "+++ (+++ is >60%)"),
    ("Cc1ccc(F)c(C)c1-c1cc2nc(n1)NS(=O)(=O)c1cccc(c1)C(=O)N(C1CC3(CC3)C1)[C@H](CC(C)C)CO2 [Compound 424]", "+++ (+++ is >60%)"),
    ("Cc1cccc(C)c1-c1cc2nc(n1)NS(=O)(=O)c1cccc(c1)C(=O)N(C1CC(N[C@H]3CC[C@H](O)CC3)C1)[C@H](CC(C)C)CO2 (stereo in doubt) [Compound 372]", "+++ (+++ is >60%)"),
    ("Cc1cccc(C)c1-c1cc2nc(n1)NS(=O)(=O)c1cccc(c1)C(=O)N(C1CC3(CCN(CCO)CC3)C1)[C@H](CC(C)C)CO2 [Compound 289]", "++ (++ is 30-60%)"),
    ("COC(=O)NCC1CC(N2C(=O)c3cccc(c3)S(=O)(=O)Nc3nc(cc(-c4c(C)cccc4C)n3)OC[C@H]2CC(C)C)C1 (stereo partly shown) [Compound 263]", "+++ (+++ is >60%)"),
    ("Cc1cccc(C)c1-c1cc2nc(n1)NS(=O)(=O)c1cccc(c1)C(=O)N(C1CC(OC(C)C)C1)[C@H](CC(C)C)CO2 (stereo partly shown) [Compound 47]", "+++ (+++ is >60%)"),
    ("COCCN1CCN([C@H]2C[C@@H](N3C(=O)c4cccc(c4)S(=O)(=O)Nc4nc(cc(-c5c(C)cccc5C)n4)OC[C@H]3CC(C)C)C2)CC1=O [Compound 385]", "+++ (+++ is >60%)"),
    ("Cc1cccc(C)c1-c1cc2nc(n1)NS(=O)(=O)c1cccc(c1)C(=O)N([C@H]1C[C@@H](N3CCCCC3)C1)[C@H](CC(C)C)CO2 [Compound 388]", "+++ (+++ is >60%)"),
    ("CNC1CC2(C1)CC(N1C(=O)c3cccc(c3)S(=O)(=O)Nc3nc(cc(-c4c(C)cccc4C)n3)OC[C@H]1CC(C)C)C2 (stereo in doubt) [Compound 282]", "+++ (+++ is >60%)"),
    ("Cc1cccc(C)c1-c1cc2nc(n1)NS(=O)(=O)c1cccc(c1)C(=O)N(C1CC3(C1)CN(C(C)C)C3)[C@H](CC1(C(F)(F)F)CC1)CO2 [Compound 132]", "+++ (+++ is >60%)"),
    ("COC(=O)NC1CC2(C1)CC(N1C(=O)c3cccc(c3)S(=O)(=O)Nc3nc(cc(-c4c(C)cccc4C)n3)OC[C@H]1CC(C)(C)C)C2 (stereo partly shown) [Compound 88]", "+++ (+++ is >60%)"),
    ("CO[C@H]1C[C@H]2CC(N3C(=O)c4cccc(c4)S(=O)(=O)Nc4nc(cc(-c5c(C)cccc5C)n4)OC[C@H]3CC(C)C)C[C@H]2C1 (stereo partly shown) [Compound 37]", "+++ (+++ is >60%)"),
    ("Cc1cccc(C)c1-c1cc2nc(n1)NS(=O)(=O)c1cccc(c1)C(=O)N(C1CC(N3CCS(=O)(=O)CC3)C1)[C@H](CC(C)C)CO2 (stereo partly shown) [Compound 72]", "+++ (+++ is >60%)"),
    ("[H][C@]1(N2C(=O)c3cccc(c3)S(=O)(=O)Nc3nc(cc(-c4c(C)cccc4C)n3)OC[C@H]2CC(C)C)C[C@@]2(C[C@H](N(C)CCOC)C2)C1 (stereo partly shown) [Compound 285]", "+++ (+++ is >60%)"),
    ("Cc1cccc(C)c1-c1cc2nc(n1)NS(=O)(=O)c1cccc(c1)C(=O)N(C1CC3(CCN(C(=O)OC(C)C)CC3)C1)[C@H](CC(C)(C)C(F)(F)F)CO2 [Compound 421]", "+++ (+++ is >60%)"),
    ("Cc1cccc(C)c1-c1cc2nc(n1)NS(=O)(=O)c1cccc(c1)C(=O)N([C@H]1C[C@@H](NC(=O)OC(C)(C)C)C1)[C@H](CC1(C(F)(F)F)CC1)CO2 (single isomer, unassigned) [Compound 55]", "+++ (+++ is >60%)"),
    ("Cc1cccc(C)c1-c1cc2nc(n1)NS(=O)(=O)c1cccc(c1)C(=O)N(C1CC(OC(F)(F)F)C1)[C@H](CC(C)C)CO2 (stereo in doubt) [Compound 214]", "+++ (+++ is >60%)"),
    ("COCC(C)N1CCC2(CC1)CC(N1C(=O)c3cccc(c3)S(=O)(=O)Nc3nc(cc(-c4c(C)cccc4C)n3)OC[C@H]1CC(C)C)C2 (stereo partly shown) [Compound 257]", "+++ (+++ is >60%)"),
    ("Cc1cccc(C)c1-c1cc2nc(n1)NS(=O)(=O)c1cccc(c1)C(=O)N(C1CCN(C)CC1)CC(CC(C)C)CO2 (stereo not shown) [Compound 440]", "++ (++ is 30-60%)"),
    ("[H][C@]1(N2C(=O)c3cccc(c3)S(=O)(=O)Nc3nc(cc(-c4c(C)cccc4C)n3)OC[C@H]2CC(C)C)C[C@@]2(C[C@H](N(C)CCOC)C2)C1 (stereo partly shown) [Compound 286]", "+++ (+++ is >60%)"),
]

----------
# ASSAY TARGET: CFTR (Homo sapiens, UniProt P13569)
# PROTOCOL NOTES: Membrane Potential Dye, Enteroid Assay B
# Format: cell-based
# SETUP CONDITIONS: Table 9, read-out: Ent. B EC50

# COMPOUND, EC50
data = [
    ("Cc1cccc(C)c1-c1cc2nc(n1)NS(=O)(=O)c1cccc(c1)C(=O)N(C1CC(N(C)C3CCC3)C1)[C@H](CC(C)C)CO2 (stereo partly drawn)", "< 1 µM"),
    ("Cc1cccc(C)c1-c1cc2nc(n1)NS(=O)(=O)c1cccc(c1)C(=O)N(C1CC3(CC(N)C3)C1)[C@H](CC(C)C)CO2 (stereo in doubt)", "< 1 µM"),
    ("Cc1cccc(C)c1-c1cc2nc(n1)NS(=O)(=O)c1cccc(c1)C(=O)N([C@H]1C[C@@H](CNC(=O)OC(C)C)C1)[C@H](CC(C)C)CO2 (single isomer, unassigned) [Compound 107]", "< 1 µM"),
]
